assay.text: Antiproliferative activity against human NCI-H929 cells after 72 hrs by CellTiter-Glo assay
Type: functional, cell-based
test.conditions: NCI-H929, 72 h
result.type: IC50 (nM)
Numbers only, in nM.

Enquiry: Consider the compound shown here: `C[C@@H]1C[C@H](N)CN(c2ccncc2Nc2ncc3ccc(-c4c(F)cccc4F)nn23)C1` What is its recorded IC50?
Return: 337

###

assay.text: Mean residence time in Sprague-Dawley rat at 2 mg/kg, iv
Assay type: ADME, organism-based
test.conditions: in vivo
result.type: MRT (h)
One number for each entry, in h.

compound.structure	MRT [h]
C[C@@H]1CC[C@H](N)CN1c1ccncc1Nc1ncc2ccc(-c3c(F)cccc3F)nn12	4
C[C@@H]1C[C@H](N)CN(c2ccncc2Nc2ncc3ccc(-c4ncccc4F)nn23)C1	4.3
C[C@@H]1C[C@H](N)CN(c2ccncc2Nc2ncc3ccc(-c4c(F)cccc4F)nn23)C1	4.3

Consider the following items and state reported MRT for each.
1. N[C@H]1CCCN(c2ccncc2Nc2ncc3ccc(-c4ncccc4F)nn23)C1
2. N[C@H]1CCCN(c2ccncc2Nc2ncc3ccc(-c4c(F)cccc4F)nn23)C1

Return:
4.1
5.6
